- Tested on: 2008 cells
- ASSAY PROCEDURE: Growth inhibition of ovarian carcinoma cells (MTS)
- Assay type: cell-based, human
- STUDY CONDITIONS: read-out: GI50 2008 48 h; 48 h; Table II prints no unit
GI50 by entry:
All answers are understood in µM, so give the number only.

Example results:
1. COc1ccc(/C=C\CC/C=C/C=C(\C)CCC(O)c2ccco2)c(OC)c1 (stereo not shown) [Compound 19AR1] = 20.2
2. C=CC[C@@H](CC/C(C)=C/C=C/CC/C=C\[C@@H]1CSC([C@@H]2C[C@@H]2C)=N1)OC [curacin A] = 0.035
3. COc1ccc(/C=C\CC/C=C/C=C(\C)CCC(O)c2cc(OC)ccc2OC)c(OC)c1 (stereo not shown) [Compound 19AR6] = 35.2

Here is the next item to consider.
Can you look up GI50 on 2008 cells for COc1ccccc1C(O)CC/C(C)=C/C=C/CC/C=C\c1cc(OC)c(OC)c(OC)c1 (stereo not shown) [Compound 19CR5] ?
0.204

###

log10 of GI50 by entry:
- System: 2008 cells
- ASSAY PROCEDURE: Growth inhibition of ovarian carcinoma cells (MTS)
- Format: cell-based, human
- STUDY CONDITIONS: read-out: GI50 2008 48 h; 48 h; Table II prints no unit
Reminder: these figures are log10 of reported GI50, in µM before transformation.

Example results:
1) COc1cc(/C=C\CC/C=C/C=C(\C)CCC(O)c2cc3ccccc3o2)cc(OC)c1OC (centres unmarked) = -0.51
2) COc1ccc(/C=C\CC/C=C/C=C(\C)CCC(O)c2ccccc2OC)c(OC)c1 (centres unmarked) = 1.49

Sample COc1ccc(/C=C\CC/C=C/C=C(\C)CCC(O)c2cc3ccccc3s2)c(OC)c1 (centres unmarked) — what was its log10 of GI50?
1.47

Sample COc1cc(/C=C\CC/C=C/C=C(\C)CCC(O)c2ccco2)cc(OC)c1OC (centres unmarked) — what was its log10 of GI50?
0.43

###

- System: PC-3 cells
- ASSAY PROCEDURE: Growth inhibition of prostate carcinoma cells (MTS)
- Format: cell-based, human
- STUDY CONDITIONS: read-out: GI50 PC3 48 h; 48 h; Table II prints no unit
RESULT TYPE: GI50 (nM)
All answers are understood in nM, so give the number only.

Example results:
1) COc1cc(/C=C\CC/C=C/C=C(\C)CCC(O)c2ccco2)cc(OC)c1OC (stereo not drawn) [Compound 19CR1] = 7990
2) C=CC[C@@H](CC/C(C)=C/C=C/CC/C=C\[C@@H]1CSC([C@@H]2C[C@@H]2C)=N1)OC [curacin A] = 50
3) COc1cc(/C=C\CC/C=C/C=C(\C)CCC(O)c2cccs2)cc(OC)c1OC (stereo not drawn) [Compound 19CR2] = 875
4) COc1cc(/C=C\CC/C=C/C=C(\C)CCC(O)c2cc3ccccc3s2)cc(OC)c1OC (stereo not drawn) [Compound 19CR4] = 933
5) COc1ccccc1C(O)CC/C(C)=C/C=C/CC/C=C\c1cc(OC)c(OC)c(OC)c1 (stereo not drawn) [Compound 19CR5] = 596

Here is the next item to consider.
Can you look up GI50 on PC-3 cells for COc1cc(/C=C\CC/C=C/C=C(\C)CCC(O)c2cc3ccccc3o2)cc(OC)c1OC (stereo not drawn) [Compound 19CR3] ?
366

###

- Test system: MDA-MB231 cells
- ASSAY PROCEDURE: Growth inhibition of breast carcinoma cells (MTS)
- Type: cell-based, human
- STUDY CONDITIONS: 96 h; read-out: GI50 MDA-MB231 (breast) 96 h
GI50 by entry:
All answers are understood in µM, so give the number only.

Example results:
1. C=CCC(CCC(C)=CC=CCCC=CC1COC(C=Cc2ccccc2)=N1)OC (stereo not drawn) = 5.8
2. C=CC[C@@H](CC/C(C)=C/C=C/CC/C=C\c1csc(C(C)(C)C)n1)OC = 0.25
3. C=CC[C@@H](CC/C(C)=C/C=C/CC/C=C\[C@@H]1COC(C(C)(C)C)=N1)OC = 4.1

Can you look up GI50 on MDA-MB231 cells for C=CC[C@@H](CC/C(C)=C/C=C/CC/C=C\[C@@H]1CSC(C(C)(C)C)=N1)OC ?
0.27

Can you look up GI50 on MDA-MB231 cells for C=CC[C@@H](CC[C@@]1(C)C[C@H]1[C@H]1C[C@@H]1CC/C=C\[C@@H]1COC([C@@H]2C[C@@H]2C)=N1)OC ?
24

Can you look up GI50 on MDA-MB231 cells for COc1cc(/C=N\OC/C=C/C=C(\C)CCC(O)c2cccs2)cc(OC)c1OC (stereo not drawn) ?
0.38

###

- System: tubulin (colchicine site)
- ASSAY PROCEDURE: Inhibition of [3H]colchicine binding to tubulin
- Design: species or system bovine
- STUDY CONDITIONS: 50 μM compound
Percent Colchicine Binding Inhibition (CBI), 50 μM by entry:
All answers are understood in %, so give the number only.

Example results:
1) COc1ccc(/C=C\CC/C=C/C=C(\C)CCC(O)c2cc3ccccc3s2)c(OC)c1 (stereo not drawn) [Compound 19AR4] = −26.4
2) COc1ccc(/C=C\CC/C=C/C=C(\C)CCC(O)c2ccccc2OC)c(OC)c1 (stereo not drawn) [Compound 19AR5] = −26.1
3) COc1ccccc1C(O)CC/C(C)=C/C=C/CC/C=C\c1cc(OC)c(OC)c(OC)c1 (stereo not drawn) [Compound 19CR5] = 68.7
4) COc1ccc(/C=C\CC/C=C/C=C(\C)CCC(O)c2cc3ccccc3o2)c(OC)c1 (stereo not drawn) [Compound 19AR3] = −29.0
5) COc1cc(/C=C\CC/C=C/C=C(\C)CCC(O)c2cccs2)cc(OC)c1OC (stereo not drawn) [Compound 19CR2] = 71.6
6) COc1cc(/C=C\CC/C=C/C=C(\C)CCC(O)c2cc3ccccc3o2)cc(OC)c1OC (stereo not drawn) [Compound 19CR3] = 59.0
7) COc1cc(/C=C\CC/C=C/C=C(\C)CCC(O)c2cc3ccccc3s2)cc(OC)c1OC (stereo not drawn) [Compound 19CR4] = 73.0
8) COc1cc(/C=C\CC/C=C/C=C(\C)CCC(O)c2ccco2)cc(OC)c1OC (stereo not drawn) [Compound 19CR1] = 59.7

Sample COc1ccc(/C=C\CC/C=C/C=C(\C)CCC(O)c2ccco2)c(OC)c1 (stereo not drawn) [Compound 19AR1] — what was its Percent Colchicine Binding Inhibition (CBI), 50 μM?
13.2

Sample COc1ccc(/C=C\CC/C=C/C=C(\C)CCC(O)c2cc(OC)ccc2OC)c(OC)c1 (stereo not drawn) [Compound 19AR6] — what was its Percent Colchicine Binding Inhibition (CBI), 50 μM?
−22.8

Sample C=CC[C@@H](CC/C(C)=C/C=C/CC/C=C\[C@@H]1CSC([C@@H]2C[C@@H]2C)=N1)OC [curacin A] — what was its Percent Colchicine Binding Inhibition (CBI), 50 μM?
96.2

Sample COc1ccc(/C=C\CC/C=C/C=C(\C)CCC(O)c2cccs2)c(OC)c1 (stereo not drawn) [Compound 19AR2] — what was its Percent Colchicine Binding Inhibition (CBI), 50 μM?
−31.7

###

- Tested on: tubulin (colchicine site)
- ASSAY PROCEDURE: Inhibition of [3H]colchicine binding to tubulin
- Set-up: species or system bovine
- STUDY CONDITIONS: 1 μM compound
RESULT TYPE: Percent Colchicine Binding Inhibition (CBI), 1 μM (%)
All answers are understood in %, so give the number only.

Sample COc1ccc(/C=C\CC/C=C/C=C(\C)CCC(O)c2cccs2)c(OC)c1 (stereo not drawn) [Compound 19AR2] — what was its Percent Colchicine Binding Inhibition (CBI), 1 μM?
−0.7

###

- TEST TARGET: tubulin (colchicine site)
- ASSAY PROCEDURE: Inhibition of [3H]colchicine binding to tubulin
- Design: species or system bovine
- STUDY CONDITIONS: incubation at 30° C. for 15 minutes; 5 μM [3H]colchicine, 1 μM tubulin; read-out: 50% Colchicine Binding Inhibitory Concentration (CBI), 30° C.
pIC50 by entry:
# pIC50 is unitless: minus log10 of the molar concentration; print number only

Example results:
1. COc1cc(/C=C\CC/C=C/C=C(\C)CCC(O)c2cc3ccccc3s2)cc(OC)c1OC (stereo not shown) [Compound 17b] = 5.05
2. COc1cc(/C=C\CC/C=C/C=C(\C)CCC(O)c2cc3ccccc3o2)cc(OC)c1OC (stereo not shown) [Compound 17e] = 5.05
3. C=CC[C@@H](CC/C(C)=C/C=C/CC/C=C\[C@@H]1CSC([C@@H]2C[C@@H]2C)=N1)OC [curacin A] = 6.05
4. COc1ccccc1C(O)CCC(C)=CC=CCCC=Cc1cc(OC)c(OC)c(OC)c1 (stereo not shown) [Compound 17d] = 5.05

Sample COc1cc(C=CCCC=CC=C(C)CCC(O)c2ccco2)cc(OC)c1OC (stereo not shown) [Compound 17a] — what was its pIC50?
4.49

Sample COc1cc(/C=C\CC/C=C/C=C(\C)CCC(O)c2cccs2)cc(OC)c1OC (stereo not shown) [Compound 17c] — what was its pIC50?
4.41
